Reference source: a melting point compilation (Tetko et al.; mined from patent text by program, amines drawn as free bases though some values may be those of a salt)

List of melting point values.

Solved cases (5 shown):
COMPOUND	QUANTITY_NAME	EXPERIMENTAL_RESULT
O=C(c1ccc2[nH]ccc2c1)N1CCN(CCc2ccc3nonc3c2)CC1	melting point	180 to 183 °C
COc1cc(OC)nc(Sc2sccc2NS(=O)(=O)CC#N)c1	melting point	118 to 120 °C
CC(C)(C)NC(=O)N1CCn2c(Cl)c(-c3cccc(C#N)c3)c(C(N)=O)c2C1	melting point	192 to 195 °C
NC(=S)C(F)(F)C[C@H]1CN(c2ccc(C3C=CS(=O)(=O)CC3)cc2)C(=O)O1 (stereo partly specified)	melting point	139 to 140 °C
Cc1c(C=CCN2CC=C(c3ccccc3)CC2)cnn1-c1ncccn1	melting point	112 to 114 °C

// next item, melting point requested
stdin: Using the record for `O=C(Nc1ccc2c(c1)CS(=O)(=O)N2)C(=O)N1CCC(Cc2ccccc2)CC1` , report its melting point.
stdout: 181 to 182 °C
